Tested on: HCC-2998 colon
Assay: NCI tumour cell line growth inhibition, 48 h; in the data active means GI50 below about 0.43 µM; inactive means the rest
Where a SMILES comes first, the peptide text is derived from it. Bridges are numbered along the chain shown (N, C = ends). [ ]: non-standard residue; d: D form. aThr = C[C@H](O)[C@H](N)C(=O)O
Form entry, call: pick from y (active), n (inactive)

compound	category_label
C=C(CN1CCc2[nH]c3ccc(F)cc3c2C1)c1ccc(C(=O)Nc2ccccc2N)cc1	n
COc1ccc(/C=C2\CCC/C(=C\c3ccc(OC)c(OC)c3)C2=O)cc1OC	n
CCc1ccc(Nc2cc(C)c3ccc(O)cc3n2)cc1	n
CC(C)C[C@@H]1NC(=O)[C@@H]2CCCN2C(=O)[C@@H]2CCCN2C(=O)[C@H](CC(C)C)NC(=O)[C@H](CO)NC(=O)[C@H](CCCCN)NC(=O)[C@H]([C@H](C)O)NC(=O)[C@@H]2CSSC[C@@H](NC1=O)C(=O)N[C@@H](Cc1ccccc1)C(=O)N1CCC[C@H]1C(=O)N[C@@H](CC(=O)O)C(=O)NCC(=O)N[C@@H](CCCN=C(N)N)C(=O)N2 (cyclo(C[aThr]KSLPPL[dC]FPDGR); disulfide 1-9)	n
CNCc1ccc(-c2cc(-c3nc(-c4ccc(S(=O)(=O)C(C)C)cc4)cnc3N)on2)cc1	n

What did this assay record as the result for `COc1ccccc1CNCCN1C(=O)c2ccc3c4c(ccc(c24)C1=O)C(=O)N(CCNCc1ccccc1OC)C3=O` ?
y

What did this assay record as the result for `COc1cc(C(=O)/C=C/c2cccc(Nc3ccnc4cc(Cl)ccc34)c2)cc(OC)c1OC` ?
n

* * *

System: T-47D breast
Assay: NCI tumour cell line growth inhibition, 48 h; in the data active = GI50 below about 0.43 µM; inactive = the rest
Form entry, call: pick from active, inactive

Some entries whose results are on file:
compound	measured_target	category_label
COc1ccc(C(O)c2cc3c(N)c(C(=O)Nc4cccc5ccccc45)sc3nc2C)cc1 (configuration not stated)	T-47D breast	inactive
[O]=[V]([OH])([OH])[OH]	T-47D breast	inactive
COCCN(CCOC)c1nc(-c2ccccc2)nc2ccccc12	T-47D breast	inactive
CCN(CC)c1ccc2nc3ccc(=[N+](CC)CC)cc-3oc2c1	T-47D breast	active
O=C(c1cccs1)c1c(C(F)(F)F)n([O-])c2cc(Cl)c(Cl)cc2[n+]1=O	T-47D breast	inactive

What did this assay record as the result for `C=CCN(CC=C)C(=O)c1cc(C)nc2c1c(=O)n(-c1ccccc1)c(=O)n2CCCN1CCN(c2ccccc2OC)CC1` ?
inactive

What did this assay record as the result for Cc1cnc(C(=O)NNc2nc3sc4c(c3c(=O)[nH]2)C(C)CCC4)cn1 (configuration not stated) ?
inactive

* * *

System: KM12 colon
Assay: NCI tumour cell line growth inhibition, 48 h
readout_kind: TGI

These recorded examples may help you get a feel for the data.
>>> df
                                   compound  readout_kind    result
0  CCN1CCC(O)(c2ccc([N+](=O)[O-])cc2)C(C(=O)c2ccc([N+](=O)[O-])cc2)C1 (stereo not given)           TGI   32.1 µM
1  COc1cc(/C=C/c2cc(/C=C/c3ccc(O)c(OC)c3)n(C(=O)c3ccccc3Br)n2)ccc1O           TGI  > 100 µM
2  Oc1c(N2CCCCC2)cc(-c2cc(N3CCCCC3)c(O)c3ccccc23)c2ccccc12           TGI  > 100 µM

If you can, please state the reported TGI value of `N#CC(C#N)=C/C=C(\Sc1ccc(Cl)cc1)c1ccc(F)cc1` .
3.73 µM

* * *

Tested on: T-47D breast
Experiment: NCI tumour cell line growth inhibition, 48 h
Label MET for high-side TGI (at or above 50 µM) and NOT MET for low-side TGI (below it).

>>> df
                                   compound  category_label
0  CCCCS(=O)c1sc2nc(-c3cccs3)cc(-c3ccccc3)c2c1N (stereo not given)         NOT MET
1  S=C1Cc2c(-c3ccccc3)cc(-c3cccc(Cl)c3)nc2-c2ccccc2N1         NOT MET
2  CCCCCCCCCCCCCCCCCCNc1ccn(C2OC(COP(=O)(O)OCC3OC(n4ccc(N)nc4=O)C(O)C3O)C(O)C2O)c(=O)n1 (stereo not given)             MET
3  C#Cc1ccc(-n2c(/C=C/c3ccc(O)cc3)nc3ncccc3c2=O)cc1             MET
4  COc1cc(/C=C/c2cc(/C=C/c3ccc(O)c(OC)c3)n(C(=O)c3ccccc3Br)n2)ccc1O         NOT MET
5  C(=Nc1nc(SCc2ccccc2)nc2[nH]ncc12)c1cccs1             MET
6  COC(=O)C1CCC(=O)N1CN(C(C)=O)c1cccc(O)c1 (stereo not given)             MET
7  CCOC(=O)c1c(NC(=O)c2ccccc2)c(C#N)c2n1CCCCC2             MET
8  COC(=O)[C@@H]1[C@@H]2NC(=S)N[C@@]1(C)Oc1ccccc12             MET

# next compound below
Quick check, TGI >= 50 µM? CCC(c1ccccc1)c1noc(CCN(CC)CC)n1 (stereo not given)
MET

* * *

Tested on: RPMI-8226 leukemia
Assay: NCI tumour cell line growth inhibition, 48 h
readout_kind: TGI

>>> print(df.to_string())
                                   molecule     measured_target  readout_kind    result
0  NS(=O)(=O)c1nnc(NC(=S)NC(=O)Nc2ccc(Cl)c(Cl)c2)s1  RPMI-8226 leukemia           TGI  > 100 µM
1  COc1ccc(OC)c2sc(N3C(=O)/C(=C/c4cccc(Oc5ccccc5)c4)N=C3c3ccccc3)nc12  RPMI-8226 leukemia           TGI  > 100 µM
2  O=C1C(Cl)N(c2ccccc2Cl)C1c1c[nH]c2ccccc12 (stereo not given)  RPMI-8226 leukemia           TGI  > 100 µM
3  COc1ccccc1Oc1nccc(-c2c(-c3ccc(F)cc3)ncn2C2CCNCC2)n1  RPMI-8226 leukemia           TGI   > 25 µM

Read the next record carefully.
If you can, please state the reported TGI value of `CCOC(=O)/C(=C\c1cccc(C)c1)C(C)=O` .
32.2 µM

* * *

Listing: TGI of selected compounds
System: UACC-62 melanoma
Assay: NCI tumour cell line growth inhibition, 48 h

These recorded examples may help you get a feel for the data.
                                   compound    result
0  Nc1nc(=S)c2ncn(C3OC(COP(=O)(O)O)C(O)C3O)c2[nH]1 (stereo unspecified)   6.14 µM
1  C(=Nc1nc(SCc2ccccc2)nc2[nH]ncc12)c1cccs1   61.8 µM
2  O=C1c2cc3c(cc2-c2c1c1ccc(Cl)cc1c(=O)n2C[C@H](O)CO)OCO3  0.122 µM
3  COc1ccccc1C1c2cc3c(cc2OC2(OC)COC(=O)C12)OCO3 (stereo unspecified)   60.1 µM
4  O=C(CSCC(=O)N/N=C/c1cccc(O)c1)N/N=C/c1cccc(O)c1  > 100 µM

Recall the recorded TGI for `Cn1c(=O)c2nc3sc4c(n3c2n(C)c1=O)C(=O)c1ccccc1C4=O` with UACC-62 melanoma and state it.
> 100 µM

Recall the recorded TGI for `CCOC(=O)c1c2c(n(-c3ccc(C)cc3)c1C)-c1ccccc1C(=O)C2(C(=O)OCC)C(=O)OCC` with UACC-62 melanoma and state it.
> 91.8 µM

Recall the recorded TGI for `O=C(Nc1ccc(OC(F)(F)Cl)cc1)c1cnc(N2CC[C@@H](O)C2)c(-c2ccn[nH]2)c1` with UACC-62 melanoma and state it.
19.5 µM

Recall the recorded TGI for `CC(C)(CN1CCCCC1)C(=O)/C=C/c1ccc(Br)cc1` with UACC-62 melanoma and state it.
> 22.9 µM

Recall the recorded TGI for CC(SC(=S)N1CCOCC1)C(=O)Nc1nnc(-c2ccc(Cl)cc2)o1 (stereo unspecified) with UACC-62 melanoma and state it.
> 100 µM

Recall the recorded TGI for `Cc1[nH]n(-c2nc3c(c(=O)[nH]2)CCCC3)c(=O)c1CCO` with UACC-62 melanoma and state it.
> 100 µM

Recall the recorded TGI for `O=S(=O)(/N=C(\NO)Nc1ccc(Cl)cc1)c1cc(C(F)(F)F)cc(C(F)(F)F)c1` with UACC-62 melanoma and state it.
30.7 µM

Recall the recorded TGI for `CN1C(=O)CC(=O)N1/C(=C/c1ccccc1)c1ccccc1` with UACC-62 melanoma and state it.
> 100 µM

* * *

Test system: M19-MEL melanoma
Assay: NCI tumour cell line growth inhibition, 48 h
Listing: TGI of selected molecules

In [3]: df
Out[3]:
                                   molecule   measured_target    result
0  C1CSCCSCCCS[C@@H]2CCCCC2SC1 (stereo not given in full)  M19-MEL melanoma  > 100 µM

If you can, please state the reported TGI value of COc1ccc2nc3cc(Cl)ccc3c(NC(C)CCCN(CCCl)CCCl)c2c1 (stereo not given) .
8.78 µM

If you can, please state the reported TGI value of `Nc1nc(=S)c2c(ncn2CCO)[nH]1` .
> 100 µM

If you can, please state the reported TGI value of CC(=O)OC1COC(N2CCc3cc([N+](=O)[O-])ccc32)C(OC(C)=O)C1OC(C)=O (stereo not given) .
> 100 µM

If you can, please state the reported TGI value of `CC(C)(CN1CCCCC1)C(=O)/C=C/c1ccc(Br)cc1` .
> 51.8 µM

Source: PubChem BioAssay (NCI)
